Substrate: Cc1cc2nc3c(=O)[nH]c(=O)nc-3n(C[C@H](O)[C@H](O)[C@H](O)COP(=O)(O)OP(=O)(O)OC[C@H]3O[C@@H](n4cnc5c(N)ncnc54)[C@H](O)[C@@H]3O)c2cc1C
Test: purified protein
Format: biochemical, Homo sapiens
Settings: co-substrate NADPH
attribute_measured: Km (µM)
Give the number; µM is assumed, so skip it.

Value of Km reported for the protein human BLVRB (biliverdin reductase B) (Homo sapiens; T164A) (protein, full length, 206 residues; codon-optimised, pET21b (T164S in pJ401k); N-terminal 6xHis tag removed with thrombin) MAVKKIAIFGATGQTGLTTLAQAVQAGYEVTVLVRDSSRLPSEGPRPAHVVVGDVLQAADVDKTVAGQDAVIVLLGTRNDLSPTTVMSEGARNIVAAMKAHGVDKVVACTSAFLLWDPTKVPPRLQAVTDDHIRMHKVLRESGLKYVAVMPPHIGDQPLTGAYAVTLDGRGPSRVISKHDLGHFMLRCLTTDEYDGHSTYPSHQYQ is 153
